assay: Biodistribution study in LNCaP tumor-bearing mice (Th227 counted in organs)
Type: in vivo, SCID mice
condition.label: 24 h; 1500 kBq/kg
Task for the reader: assign each of the following molecules its reported Th-227 in muscle.
The answer is to be given in % ID Th-227/g organ; state only the numeric part.

Value of Th-227 in muscle reported for the molecule O=C([O-])CN1CCN(CC(=O)[O-])CCN(CC(=O)NCc2ccc(C(=O)N[C@@H](Cc3ccc4ccccc4n3)C(=O)NCCCC[C@H](NC(=O)N[C@@H](CCC(=O)O)C(=O)O)C(=O)O)nc2)CCN(CC(=O)[O-])CC1.[227Th+4] [Example 34-B-227Th] is 0.00

Value of Th-227 in muscle reported for the molecule O=C([O-])CN1CCN(CC(=O)[O-])CCN(CC(=O)NCC2CCC(C(=O)NC(Cc3ccc4ccccc4c3)C(=O)NCCCCC(NC(=O)NC(CCC(=O)O)C(=O)O)C(=O)O)CC2)CCN(CC(=O)[O-])CC1.[227Th+4] (stereo not shown) [Example 1-B-227Th] is 0.16

Value of Th-227 in muscle reported for the molecule O=C([O-])CN1CCN(CC(=O)[O-])CCN(CC(=O)NCC2CCC(C(=O)NC(Cc3ccc4ccccc4c3)C(=O)NCCCCC(NC(=O)NC(CCC(=O)O)C(=O)O)C(=O)O)CC2)CCN(CC(=O)[O-])CC1.[227Th+4] [Example 1-B-D-227Th] is 0.00

Value of Th-227 in muscle reported for the molecule Cc1cc(C(=O)NCCN(CCCN(CCNC(=O)c2cc(C)n(CC(=O)O)c(=O)c2[O-])CCNC(=O)c2cc(C)n(CC(=O)NCC3CCC(C(=O)NC(Cc4cnc5ccccc5c4)C(=O)NCCCCC(NC(=O)NC(CCC(=O)O)C(=O)O)C(=O)O)CC3)c(=O)c2[O-])CCNC(=O)c2cc(C)n(CC(=O)NCC3CCC(C(=O)NC(Cc4cnc5ccccc5c4)C(=O)NCCCCC(NC(=O)NC(CCC(=O)O)C(=O)O)C(=O)O)CC3)c(=O)c2[O-])c([O-])c(=O)n1CC(=O)O.[227Th+4] (stereo not shown) [Example 22-C dimer-227Th] is 0.00

====

assay: Biodistribution study in LNCaP tumor-bearing mice (Th227 counted in organs)
Format: in vivo, SCID mice
condition.label: 1 hr; 1500 kBq/kg
Source text: SCID mice were randomly assigned to experimental groups, ten animals per group (efficacy) or n=3-5 per time point of biodistribution study. […] At the predetermined time point, n=3 animals were sacrificed, the organs removed, weight and measured in a Germanium detector to count the Th227 in the sample.
measured.metric: Th-227 in Blood

Value of Th-227 in Blood reported for the compound Cc1cc(C(=O)NCCN(CCCN(CCNC(=O)c2cc(C)n(CC(=O)O)c(=O)c2[O-])CCNC(=O)c2cc(C)n(CC(=O)NCC3CCC(C(=O)NC(Cc4cnc5ccccc5c4)C(=O)NCCCCC(NC(=O)NC(CCC(=O)O)C(=O)O)C(=O)O)CC3)c(=O)c2[O-])CCNC(=O)c2cc(C)n(CC(=O)NCC3CCC(C(=O)NC(Cc4cnc5ccccc5c4)C(=O)NCCCCC(NC(=O)NC(CCC(=O)O)C(=O)O)C(=O)O)CC3)c(=O)c2[O-])c([O-])c(=O)n1CC(=O)O.[227Th+4] (stereo not drawn) [Example 22-C dimer-227Th] is 0.53% ID Th-227/g organ

Value of Th-227 in Blood reported for the compound O=C([O-])CN1CCN(CC(=O)[O-])CCN(CC(=O)NCC2CCC(C(=O)NC(Cc3ccc4ccccc4c3)C(=O)NCCCCC(NC(=O)NC(CCC(=O)O)C(=O)O)C(=O)O)CC2)CCN(CC(=O)[O-])CC1.[227Th+4] [Example 1-B-D-227Th] is 1.04% ID Th-227/g organ

Value of Th-227 in Blood reported for the compound O=C([O-])CN1CCN(CC(=O)[O-])CCN(CC(=O)NCC2CCC(C(=O)NC(Cc3ccc4ccccc4c3)C(=O)NCCCCC(NC(=O)NC(CCC(=O)O)C(=O)O)C(=O)O)CC2)CCN(CC(=O)[O-])CC1.[227Th+4] (stereo not drawn) [Example 1-B-227Th] is 3.85% ID Th-227/g organ
